The reader will find reported pKi values listed item by item below.
Target: serotonin transporter (Rattus norvegicus, UniProt P31652)
Construct: displace ^3H-paroxetine from male rat cortical membranes; from tissue; host or cells: male rat cortical membranes
Sequence (P31652 whole entry): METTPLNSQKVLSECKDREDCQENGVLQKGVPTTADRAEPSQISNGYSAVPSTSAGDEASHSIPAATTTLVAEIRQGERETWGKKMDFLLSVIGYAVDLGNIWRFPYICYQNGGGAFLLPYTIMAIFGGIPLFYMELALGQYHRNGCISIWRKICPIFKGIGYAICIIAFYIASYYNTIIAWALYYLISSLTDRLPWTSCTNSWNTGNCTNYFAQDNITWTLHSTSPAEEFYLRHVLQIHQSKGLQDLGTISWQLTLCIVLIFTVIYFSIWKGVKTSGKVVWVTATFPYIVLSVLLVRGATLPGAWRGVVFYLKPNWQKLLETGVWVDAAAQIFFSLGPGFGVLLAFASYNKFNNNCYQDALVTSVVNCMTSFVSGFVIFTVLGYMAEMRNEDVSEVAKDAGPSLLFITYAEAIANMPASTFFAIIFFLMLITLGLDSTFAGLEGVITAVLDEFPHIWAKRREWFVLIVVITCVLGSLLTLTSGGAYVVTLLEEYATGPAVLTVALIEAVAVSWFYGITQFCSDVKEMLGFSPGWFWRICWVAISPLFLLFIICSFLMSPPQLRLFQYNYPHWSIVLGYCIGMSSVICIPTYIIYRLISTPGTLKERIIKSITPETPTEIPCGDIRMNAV
Test: 5-HT transporter affinity: displacement of 3H-paroxetine from male rat cortical membranes
Format: binding
Conditions: displacement of 3H-paroxetine; male rat cortical membranes; read-out: 5-HT Transporter Affinity Ki
pKi: −log10 of the molar value.
Assay endpoint: pKi

Compound	Tested on	Meas value
NC(=O)c1ccc(F)c2c1CC(NCCCn1ccc3ccccc31)CO2 (stereo not drawn)	serotonin transporter (Rattus norvegicus, UniProt P31652)	6.21
CCCN(CCCc1c[nH]c2ccc(F)cc12)C1CCc2c(F)ccc(OC)c2C1 (stereo not drawn) [Compound 51]	serotonin transporter (Rattus norvegicus, UniProt P31652)	8.62
CCN(CCCCc1coc2c(OC)cccc12)C1COc2c(F)ccc(C(N)=O)c2C1 (stereo not drawn)	serotonin transporter (Rattus norvegicus, UniProt P31652)	6.73
CCCN(CCCc1c[nH]c2ccc(F)cc12)C1COc2c(F)ccc(C(N)=O)c2C1 (single isomer, unassigned; (+)) [Compound 2b]	serotonin transporter (Rattus norvegicus, UniProt P31652)	8.41
CCCN(CCCc1c[nH]c2ccc(F)cc12)C1CCc2c(F)ccc(OC)c2C1 (single isomer, unassigned; (-)) [Compound 51b]	serotonin transporter (Rattus norvegicus, UniProt P31652)	8.95
CCN(CCCCc1c[nH]c2ccc(F)cc12)C1COc2c(F)ccc(C(N)=O)c2C1 (stereo not drawn)	serotonin transporter (Rattus norvegicus, UniProt P31652)	9.82
COc1cccc2c1C[C@@H](N(CCCc1c[nH]c3ccc(F)cc13)C1CCC1)CO2	serotonin transporter (Rattus norvegicus, UniProt P31652)	7.39
CCN(CC1CCc2[nH]c3ccc(F)cc3c2C1)[C@H]1COc2c(F)ccc(C(N)=O)c2C1 (single isomer, unassigned; (-)) [Compound 176a]	serotonin transporter (Rattus norvegicus, UniProt P31652)	6.21
CCCN(CCCc1c[nH]c2ccc(F)cc12)[C@@H]1COc2c(F)ccc(OC)c2C1	serotonin transporter (Rattus norvegicus, UniProt P31652)	7.87
CCCCNC(=O)c1ccc(F)c2c1CC(N(CCCc1c[nH]c3ccc(F)cc13)C1CCC1)CO2 (stereo not drawn)	serotonin transporter (Rattus norvegicus, UniProt P31652)	8.34
NC(=O)c1ccc(F)c2c1OCC(N(CCCCc1c[nH]c3ccc(F)cc13)C1CCC1)C2 (stereo not drawn)	serotonin transporter (Rattus norvegicus, UniProt P31652)	7.77
CCN(CCCc1c[nH]c2ccc(F)cc12)C1COc2c(F)ccc(C(=O)NC)c2C1 (stereo not drawn)	serotonin transporter (Rattus norvegicus, UniProt P31652)	8.97

====

Target: cloned human 5-HT1A receptors (Homo sapiens, UniProt P08908)
Construct: expressed in transfected cells
Test: 35S-GTPγS binding assay, 5-HT1A function
Assay type: biochemical
Conditions: maximum inhibitory effect, in brackets after IC50; read-out: 5-HT1A Function GTPγS (Imax)
Quick reference: Emax of the listed items.

Molecule	Tested on	Emax
CCCN(CCCc1c[nH]c2ccc(F)cc12)C1CCc2c(F)ccc(OC)c2C1 (single isomer, unassigned; (-)) [Compound 51b]	cloned human 5-HT1A receptors (Homo sapiens, UniProt P08908)	46%
NC(=O)c1ccc(F)c2c1CC(NCCCCc1c[nH]c3ccc(F)cc13)CO2 (stereo not shown)	cloned human 5-HT1A receptors (Homo sapiens, UniProt P08908)	63%
NC(=O)c1ccc(F)c2c1CC(N(CCCc1c[nH]c3ccc(F)cc13)CC1CC1)CO2 (stereo not shown) [Compound 5]	cloned human 5-HT1A receptors (Homo sapiens, UniProt P08908)	88.2%
COc1cccc2c(CCCN(CC3CC3)C3COc4c(F)ccc(C(N)=O)c4C3)coc12 (stereo not shown)	cloned human 5-HT1A receptors (Homo sapiens, UniProt P08908)	91%
NC(=O)c1ccc(Cl)c2c1CC(N(CCCc1c[nH]c3ccc(F)cc13)C1CCC1)CO2 (stereo not shown)	cloned human 5-HT1A receptors (Homo sapiens, UniProt P08908)	100%
COc1cccc2c1CC(N(CCCCc1c[nH]c3ccc(F)cc13)C1CCC1)CO2 (stereo not shown)	cloned human 5-HT1A receptors (Homo sapiens, UniProt P08908)	56%
CCN(CC1CCc2[nH]c3ccc(F)cc3c2C1)[C@H]1COc2c(F)ccc(C(N)=O)c2C1 (single isomer, unassigned; (-)) [Compound 176a]	cloned human 5-HT1A receptors (Homo sapiens, UniProt P08908)	92%
CCN(CCc1c[nH]c2ccc(F)cc12)C1COc2c(F)ccc(C(N)=O)c2C1 (stereo not shown)	cloned human 5-HT1A receptors (Homo sapiens, UniProt P08908)	68%
NC(=O)c1ccc(F)c2c1CC(N(CCCc1c[nH]c3cc(F)ccc13)CC1CC1)CO2 (stereo not shown) [Compound 52a]	cloned human 5-HT1A receptors (Homo sapiens, UniProt P08908)	90%
COc1ccc2[nH]cc(CCCN(C3CCC3)C3COc4c(F)ccc(C(N)=O)c4C3)c2c1 (stereo not shown)	cloned human 5-HT1A receptors (Homo sapiens, UniProt P08908)	100%
CCCN(CCCc1c[nH]c2ccc(OC)cc12)C1COc2c(F)ccc(C(N)=O)c2C1 (stereo not shown)	cloned human 5-HT1A receptors (Homo sapiens, UniProt P08908)	42%
CCCN(CCc1c[nH]c2ccc(F)cc12)C1COc2c(F)ccc(C(N)=O)c2C1 (stereo not shown)	cloned human 5-HT1A receptors (Homo sapiens, UniProt P08908)	100%
COc1cccc2c1CC(N(CCCc1c[nH]c3ccccc13)C1CCC1)CO2 (stereo not shown)	cloned human 5-HT1A receptors (Homo sapiens, UniProt P08908)	59%
NC(=O)c1ccc(F)c2c1CC(N(CCCCn1ccc3cc(F)ccc31)C1CCC1)CO2 (stereo not shown)	cloned human 5-HT1A receptors (Homo sapiens, UniProt P08908)	100%
COc1cccc2c(CCCCN(C3CCC3)C3COc4c(F)ccc(C(N)=O)c4C3)coc12 (stereo not shown)	cloned human 5-HT1A receptors (Homo sapiens, UniProt P08908)	100%
COc1cccc2c(CCCCNC3COc4c(F)ccc(C(N)=O)c4C3)coc12 (stereo not shown)	cloned human 5-HT1A receptors (Homo sapiens, UniProt P08908)	100%

====

EC50 for assorted compounds
Biological target: cloned human 5-HT1A receptors (Homo sapiens, UniProt P08908)
Sequence (P08908 1-422): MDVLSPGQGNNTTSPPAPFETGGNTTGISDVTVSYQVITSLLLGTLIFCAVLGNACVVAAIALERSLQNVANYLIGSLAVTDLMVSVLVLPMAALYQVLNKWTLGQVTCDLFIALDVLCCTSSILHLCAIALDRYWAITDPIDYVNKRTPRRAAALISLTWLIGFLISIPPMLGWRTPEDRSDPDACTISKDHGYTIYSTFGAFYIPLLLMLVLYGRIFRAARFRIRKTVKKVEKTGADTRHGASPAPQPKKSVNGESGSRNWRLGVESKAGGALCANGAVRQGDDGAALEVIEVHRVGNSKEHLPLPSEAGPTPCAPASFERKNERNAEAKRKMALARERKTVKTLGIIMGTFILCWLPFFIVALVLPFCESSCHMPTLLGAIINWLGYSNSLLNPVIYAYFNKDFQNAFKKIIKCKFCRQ
Assay: 35S-GTPγS binding assay, 5-HT1A function
Details: agonist potency

Compound	Tested on	EC50
CCCN(CCCc1c[nH]c2ccc(F)cc12)C1COc2c(F)ccc(C(N)=O)c2C1 (single isomer, unassigned; (+)) [Compound 2b]	cloned human 5-HT1A receptors (Homo sapiens, UniProt P08908)	36.3 nM
COC(=O)c1cccc2c1CC(NCCCc1c[nH]c3c(F)cc(F)cc13)CO2 (stereo not shown)	cloned human 5-HT1A receptors (Homo sapiens, UniProt P08908)	441 nM
CCCN(CCc1coc2c(OC)cccc12)C1COc2c(F)ccc(C(N)=O)c2C1 (stereo not shown)	cloned human 5-HT1A receptors (Homo sapiens, UniProt P08908)	10600 nM
NC(=O)c1ccc(F)c2c1CC(NCCCc1c[nH]c3ccc(Cl)cc13)CO2 (stereo not shown)	cloned human 5-HT1A receptors (Homo sapiens, UniProt P08908)	1320 nM

====

Molecular target: cloned human 5-HT1A receptors (Homo sapiens)
Construct: expressed in transfected cells
Sequence (P08908 1-422): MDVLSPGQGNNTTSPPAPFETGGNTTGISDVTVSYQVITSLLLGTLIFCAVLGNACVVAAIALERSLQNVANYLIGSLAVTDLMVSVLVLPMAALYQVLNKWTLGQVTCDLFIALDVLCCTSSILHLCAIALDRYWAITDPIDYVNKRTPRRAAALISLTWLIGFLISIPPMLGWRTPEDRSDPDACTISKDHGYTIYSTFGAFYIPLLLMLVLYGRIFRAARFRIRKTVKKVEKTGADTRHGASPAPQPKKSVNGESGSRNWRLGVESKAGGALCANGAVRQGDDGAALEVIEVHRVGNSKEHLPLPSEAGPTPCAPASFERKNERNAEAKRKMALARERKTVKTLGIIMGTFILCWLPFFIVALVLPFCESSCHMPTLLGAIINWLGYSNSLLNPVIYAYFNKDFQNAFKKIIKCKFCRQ
Assay: 35S-GTPγS binding assay, 5-HT1A function
Type: biochemical
Settings: maximum stimulatory effect, in brackets after EC50; read-out: 5-HT1A Function GTPγS (Emax)

Molecule	Emax [%]
CCN(CCCCc1coc2c(OC)cccc12)C1COc2c(F)ccc(C(N)=O)c2C1 (centres unmarked) [Compound 168]	76
O=C(NC1CCCC1)c1ccc(F)c2c1CC(N(CCCc1c[nH]c3ccc(F)cc13)C1CCC1)CO2 (centres unmarked) [Compound 66]	38
COC(=O)c1ccc(F)c2c1CC(NCCCc1c[nH]c3ccc(F)cc13)CO2 (centres unmarked) [Compound 10]	85
CCCN(CCCc1csc2ccc(F)cc12)C1COc2cccc(OC)c2C1 (centres unmarked) [Compound 19]	100
CCN(CCCCc1c[nH]c2ccc(F)cc12)C1COc2c(C(N)=O)ccc(F)c2C1 (centres unmarked) [Compound 127]	50
CCCN(CCCc1c[nH]c2ccc(F)cc12)C1CCc2c(F)ccc(OC)c2C1 (centres unmarked) [Compound 51]	95
NC(=O)c1cccc2c1CC(NCCCc1c[nH]c3ccc(F)cc13)CO2 (centres unmarked) [Compound 133]	100
CCCN(CCCc1coc2ccccc12)C1COc2c(F)ccc(C(N)=O)c2C1 (centres unmarked) [Compound 20]	84
COc1cccc2c1CC(N(CCCc1cn(C)c3ccc(F)cc13)CC1CC1)CO2 (centres unmarked) [Compound 38]	90
CCN(CCCc1c[nH]c2c(F)cc(F)cc12)C1COc2c(C(N)=O)ccc(F)c2C1 (centres unmarked) [Compound 132]	98
COc1cccc2c(CCCN(CC3CC3)C3COc4c(F)ccc(C(N)=O)c4C3)coc12 (centres unmarked) [Compound 165]	22
CC(C)NC(=O)c1cccc2c1CC(N(CCCc1c[nH]c3c(F)cc(F)cc13)C1CCC1)CO2 (centres unmarked) [Compound 141]	99
CCN(CCCc1c[nH]c2ccc(F)cc12)C1COc2cccc(C(N)=O)c2C1 (centres unmarked) [Compound 149]	79
COc1cccc2c1CC(N[C@H]1CC[C@H](c3c[nH]c4ccc(C#N)cc43)CC1)CO2 (relative stereo) [Compound 180b]	50.5
NC(=O)c1cccc2c1C[C@H](NCCCc1c[nH]c3ccc(F)cc13)CO2 [Compound 133a]	60
CCCN(CCc1c[nH]c2ccc(F)cc12)C1COc2cccc(OC)c2C1 (centres unmarked) [Compound 29]	70
COC(=O)c1cccc2c1CC(NCCCc1c[nH]c3c(F)cc(F)cc13)CO2 (centres unmarked) [Compound 135]	100
CCCN(CCCc1c[nH]c2ccc(F)cc12)C1CCc2c(F)ccc(OC)c2C1 (single isomer, unassigned; (+)) [Compound 51a]	69
NC(=O)c1ccc(F)c2c1CC(NCCCc1c[nH]c3ccc(Cl)cc13)CO2 (centres unmarked) [Compound 114]	64
COc1cccc2c1CC(N(CCCc1c[nH]c3ccc(F)cc13)CC1CCC1)CO2 (centres unmarked) [Compound 42]	84
NC(=O)c1cccc2c1C[C@@H](NCCCc1c[nH]c3ccc(F)cc13)CO2 [Compound 133b]	83
COc1cccc2c(CCN(CC3CC3)C3COc4c(F)ccc(C(N)=O)c4C3)coc12 (centres unmarked) [Compound 160]	51
NC(=O)c1ccc(F)c2c1OCC(N(CCCc1c[nH]c3c(F)cc(F)cc13)CC1CC1)C2 (centres unmarked) [Compound 130]	39
CCN(CCc1c[nH]c2ccc(F)cc12)C1CCc2cccc(OC)c2C1 (centres unmarked) [Compound 49]	88
COc1cccc2c1CC(N(CCCc1c[nH]c3ccccc13)CC1CC1)CO2 (centres unmarked) [Compound 43]	100
CCCN(CCCc1c[nH]c2ccc(OC)cc12)C1COc2c(F)ccc(C(N)=O)c2C1 (centres unmarked) [Compound 106]	47
COC(=O)c1ccc(F)c2c1C[C@H](NCCCCc1c[nH]c3ccc(F)cc13)CO2 [Compound 57a]	96
CCN(C(C)CCc1c[nH]c2ccc(F)cc12)C1COc2c(F)ccc(C(N)=O)c2C1 (single isomer, unassigned; (+)) [Compound 16b]	20
CCCN(C(C)CCc1c[nH]c2ccc(C#N)cc12)C1COc2c(F)ccc(C(N)=O)c2C1 (single isomer, unassigned) [Compound 13b]	56.5
CCCN(CCCc1c[nH]c2ccc(F)cc12)[C@@H]1CCc2cccc(OC)c2C1 [Compound 47b]	87
CCCN(CCCc1c[nH]c2c(OC)cccc12)C1COc2c(F)ccc(C(N)=O)c2C1 (centres unmarked) [Compound 100]	100
COc1cccc2c1CC(N(CCCc1c[nH]c3ccc(C#N)cc13)CC1CC1)CO2 (centres unmarked) [Compound 45]	72

Entry source: patent US20050032873A1
